Assay target: RSV prefusion F (preF), DS-Cav1 (Respiratory syncytial virus, UniProt P03420 26-513)
Method: BLI, IgG on anti-human IgG sensor, 100 nM antigen
Quantity kind: Kd (nM)

Binder: ADI-41664 (antibody, V domains shown, also called Ab 890; Antibody Number 890) VH: EVQLVQSGDEVKKPGASVKVSCKASGYPFSTYGISWVRQAPGQGLEWMGWIGVYTGGTNYAQKFQGRVTLTTDTSTSTAYMELRSLRSDDTAVYYCARGTGSYMTATYFDYWGQGTLVTVSS VL: SYELTQPPSVSVAPGQTARITCGGNNIGSKAVHWYQQKPGQAPVLVVYDDYDRPSGIPERFSGSNSGNTATLTISRVEAGDEADYYCQVWDSSSDYVFGTGTKLTVL
Assay result: 2.94
--
Binder: ADI-41570 (antibody, V domains shown, also called Ab 848; Antibody Number 848) VH: QVQLVQSGAEVKKPGSSVKVSCMASGGTFSNSAINWVRQAPGQGLEWMGGTIPIFGAANYAQRFQARVTITADKSTSTAYMELTSLRSDDTAVYYCVRTPHRSSDHIWGSYRYFDSWGQGTLVTVSS VL: QSVVTQEPSVSAAPGQKITISCSGSTSNIGINYVSWYQQFPGTAPKLLIYDNDKRPSGIPDRFSGSKSGTSATLGITGLQAGDEADYYCGTWDSSLSAGHIFGGGTKVTVL
Assay result: 2.97
--
Binder: ADI-41609 (antibody, V domains shown) VH: QVQLVESGAEVKKPGASVKVSCKASGYSFTSYYMHWVRQAPGQGLEWMGVISTNGGTASYSQNFRGRVTLTRDTSTSTAYMELSSLTSEDTAVYYCVREGYCNGGSCSYFDSWGQGTLVTVSS VL: QSVLTQPPSVSGAPGQRVSISCTGSSSNIGAGYDVHWYQQLPGTAPKVLIYGNNYRPSGVPDRFSGSKSGTSASLAITGLQTEDEADYYCQSYDSRLSVVFGGGTKLTVL
Assay result: 29.1
--
Binder: ADI-41794 (antibody, V domains shown) VH: EVQLQQWGAGLLKPSETLSLTCAVYGGSFSGYYWSWIRQPPGKGLEWIGEINHSGSTNYNPSLKSRVTISVDTSKNQFSLKLSSVTAADTAVYYCARGTRTIVYCDGDCYQPWAYHYYGMDVWGQGTTVTVSS VL: QSVVTQEPSVSAAPGQKVTISCSGGSSNIGNNYVSWYQHLPGTAPKLLIYDNDKRPSGIPDRFSGSKSGTSATLGITGLQTGDEADYYCGTWDSSLSAVVFGGGTKLTVL
Assay result: 3.31
--
Binder: ADI-41809 (antibody, V domains shown) VH: QVTLKESGGGLVQPGGSLRLSCAASGFTFSNYAMSWVRQAPGKGLEWVSAISHSDSRTFYADSVKGRFTISRDNSKNTLFLQMDSLRAHDTAVYYCANVDPSSVTYYGYYYGMDVWGQGTTVTVSS VL: QSVLTQPPSASGTPGQRVTISCSGSSSNIGKNFVYWYQQFPGTAPKRLIYRNNQRPSGVPDRFSGSRSGTSASLAISGLRSEDEADYYCATWDDSLSGWVFGGGTKLTVL
Assay result: 2.65
